measurement notes: Relative Lipophilicity measured by reversed-phase high performance thin-layer chromatography (RP-HPTLC)
Type: physicochemical
Rule: Rm of -0.5 or more gives met; anything lower gives not met.

Req: Test whether the compound `COc1cc2c(cc1OC)C(c1ccc(N)cc1)=NNC(=O)C2` records Rm of -0.5 or higher.
Resp: not met

Req: Test whether the compound `COc1cc2c(cc1OC)C(c1ccccc1)=NNC(=O)C2` records Rm of -0.5 or higher.
Resp: met

Req: Test whether the compound `COc1cc2c(cc1OC)C(c1ccc([N+](=O)[O-])cc1)=Nn1c(O)nnc1C2` records Rm of -0.5 or higher.
Resp: met

Req: Test whether the compound `COc1cc2c(cc1OC)C(c1cccc(N)c1)=NNC(=O)C2` records Rm of -0.5 or higher.
Resp: not met

Req: Test whether the compound `COc1cc2c(cc1OC)C(c1ccc(F)cc1)=Nn1c(O)nnc1C2` records Rm of -0.5 or higher.
Resp: met

Req: Test whether the compound `CC1=NN=C(c2ccc(N)cc2)c2cc3c(cc2C1)OCO3` records Rm of -0.5 or higher.
Resp: met

Req: Test whether the compound `COc1cc2c(cc1OC)C(c1cccc(N)c1)=Nn1c(O)nnc1C2` records Rm of -0.5 or higher.
Resp: not met

Req: Test whether the compound `COc1cc2c(cc1OC)C(c1ccc(F)cc1)=NNC(=O)C2` records Rm of -0.5 or higher.
Resp: met

Req: Test whether the compound `COc1cc2c(cc1OC)C(c1ccc(N)cc1)=Nn1c(O)nnc1C2` records Rm of -0.5 or higher.
Resp: not met

Req: Test whether the compound `COc1cc2c(cc1OC)C(c1cccc([N+](=O)[O-])c1)=NNC(=O)C2` records Rm of -0.5 or higher.
Resp: met

Req: Test whether the compound `COc1cc2c(cc1OC)C(c1cccc([N+](=O)[O-])c1)=Nn1c(O)nnc1C2` records Rm of -0.5 or higher.
Resp: met

Req: Test whether the compound `COc1cc2c(cc1OC)C(c1ccc([N+](=O)[O-])cc1)=NNC(=O)C2` records Rm of -0.5 or higher.
Resp: met

====

measurement notes: Therapeutic index is the ratio between TD50 and ED50 (from the clonic phase of the audiogenic seizures)
test settings: read-out: TI
experimental readout: selectivity ratio
Form: value (number only, do not type unit).

Form field selectivity ratio, entry `COc1cc2c(cc1OC)C(c1ccc(F)cc1)=Nn1c(O)nnc1C2` : 2.8

Form field selectivity ratio, entry `COc1cc2c(cc1OC)C(c1cccc(N)c1)=Nn1c(O)nnc1C2` : 3.8

Form field selectivity ratio, entry `COc1cc2c(cc1OC)C(c1ccccc1)=Nn1c(O)nnc1C2` : 2.8

Form field selectivity ratio, entry `COc1cc2c(cc1OC)C(c1ccc(N)cc1)=Nn1c(O)nnc1C2` : 4

Where these numbers come from: ChEMBL document CHEMBL1133552
